experimental details: qHTS Assay for Rab9 Promoter Activators; note: nearly all actives have a fitted effect of over 60% in size
experimental setup: Huh7 Rab9 promoter-luciferase reporter, luminescence, 24 h; series mostly up to 9.22 µM
Screen size: about 320,000 compounds; about 9,100 (2.8%) were called active. Not shown: some 3% with an inconclusive outcome. Calls come from the whole dose curve; as a rule, active = well fitted activation curve with a large enough effect; inconclusive = small, poorly fitted or top-dose-only effect; inactive = no such curve, though single readings can be large or run the other way. This excerpt belongs to a sample that is enriched for actives.
I would appreciate it if you answered using one of these outcomes: active, inactive

Field: example entries. Status: answers known.
entry smiles: Cc1[nH]n(C(N)=S)c(=O)c1N=Nc1ccc(Cl)cc1Cl
discrete label: active

entry smiles: COc1ccccc1-c1cc(C(=O)NCCCn2ccnc2)no1
discrete label: inactive

entry smiles: O=C(Nc1ccc(Cl)cc1)c1ccsn1
discrete label: active

entry smiles: CN(CC(=O)Nc1ccc(OC(F)(F)F)cc1)C(=O)C1CCC1
discrete label: inactive

entry smiles: CCC(=O)Nc1ccc(C(=O)NNC(=O)c2ccc(Cl)cc2)cc1
discrete label: inactive

entry smiles: O=C(Nc1cc(C(F)(F)F)ccc1Cl)c1cc2nc3c(c(C(F)(F)F)n2n1)CCCC3
discrete label: active

entry smiles: Cc1cccc(CSc2nnc(NC(=O)CSc3nnc(C)s3)s2)c1
discrete label: inactive

entry smiles: O=C(Nc1ccc2c(c1)OCCO2)c1cnccn1
discrete label: active

## Task In this assay, the call recorded for "Cn1ccc(NC(=O)Nc2ccc(Cl)cc2)n1" was what?
## Result inactive

## Task Returns: the outcome recorded for "C=CCSc1nnc(NC(=O)c2ccc(NC(C)=O)cc2)s1" in this assay.
## Result inactive
